# Assay Info: Therapeutic ratio in mixed-breed or Beagle dogs after intravenous administration of the compound.
# Type: ADME, Canis lupus familiaris
# Condition Parameters: dog, in vivo, read-out: TR
Endpoint Name: selectivity ratio

# Molecule, Endpoint Name, Experimental Value
measured = [
    ("CC(C)N(CCC(CCN1CCCCC1)(C(N)=O)c1ccc(F)cc1F)C(C)C (stereo unspecified)", "selectivity ratio", "> 4"),
    ("CC(C)N(CCC(CCN1CCOCC1)(C(N)=O)c1ccccc1)C(C)C (stereo unspecified)", "selectivity ratio", 7.6),
    ("CC(C)N(CCC(CCN(C(C)C)C(C)C)(C(N)=O)c1ccc(Cl)cc1Cl)C(C)C", "selectivity ratio", 4),
    ("CC(C)N(CCC(CCN1CCCCC1)(C(N)=O)c1ccc(F)cc1)C(C)C (stereo unspecified)", "selectivity ratio", 1),
    ("CC(C)N(CCC(CCCN1CCCCC1)(C(N)=O)c1ccccc1F)C(C)C (stereo unspecified)", "selectivity ratio", "> 6"),
    ("CC(C)c1ccc(C(CCN2CCCCC2)(CCN(C(C)C)C(C)C)C(N)=O)cc1 (stereo unspecified)", "selectivity ratio", 2),
    ("COc1ccc(C(CCN(C(C)C)C(C)C)(CCN(C(C)C)C(C)C)C(N)=O)cc1", "selectivity ratio", 3.1),
    ("CC(C)N(CCC(CCN(C(C)C)C(C)C)(C(N)=O)c1ccc(Cl)c(Cl)c1)C(C)C", "selectivity ratio", 4.6),
    ("CC(C)N(CCC(CCN(C(C)C)C(C)C)(C(N)=O)c1c(Cl)cccc1Cl)C(C)C", "selectivity ratio", 4.6),
    ("CC(C)N(CCC(CCN(C(C)C)C(C)C)(C(N)=O)c1cccc(Cl)c1)C(C)C", "selectivity ratio", 6.7),
    ("CC(C)N(CCC(CCN1CC2CCC(CC2)C1)(C(N)=O)c1ccccc1)C(C)C (stereo unspecified)", "selectivity ratio", 12.5),
    ("CC(C)N(CCC(CCN1CC2CCC1CC2)(C(N)=O)c1ccccc1)C(C)C (stereo unspecified)", "selectivity ratio", 4.6),
    ("CC(C)N(CCC(CCCN(C)C)(C(N)=O)c1ccccc1F)C(C)C (stereo unspecified)", "selectivity ratio", "> 4"),
    ("CC(C)N(CCC(CCCN1CC2CCC(CC2)C1)(C(N)=O)c1ccccc1Cl)C(C)C (stereo unspecified)", "selectivity ratio", 4),
    ("CC(C)N(CCC(CCCN1CCCCC1)(C(N)=O)c1ccccc1Cl)C(C)C (stereo unspecified)", "selectivity ratio", 5),
    ("CC(C)N(CCC(CCN1CCCCC1)(C(N)=O)c1ccc(Cl)cc1)C(C)C (stereo unspecified)", "selectivity ratio", 1),
]

----------
# System: Canis familiaris
# Assay Info: Antiarrhythmic activity was evaluated in mixed-breed or Beagle dogs after intravenous administration.
# Type: functional, Canis lupus familiaris, Heart

# Compound, Target, AR
records = [
    ("CC(C)N(CCC(CCN1CCCCCC1)(C(N)=O)c1ccccc1)C(C)C (stereo not drawn)", "Canis familiaris", 6.8),
    ("CC(C)N(CCC(CCN1CC2CCC(CC2)C1)(C(N)=O)c1ccccc1)C(C)C (stereo not drawn)", "Canis familiaris", 7),
    ("CC(C)N(CCC(CCN(C(C)C)C(C)C)(C(N)=O)c1cccc(C(F)(F)F)c1)C(C)C", "Canis familiaris", 6),
    ("CC(C)N(CCC(CCN1CCCCC1)(C(N)=O)c1ccccc1)C(C)C (stereo not drawn)", "Canis familiaris", 6.1),
    ("CC(C)N(CCC(CCN(C(C)C)C(C)C)(C(N)=O)c1ccccc1Br)C(C)C", "Canis familiaris", 6.1),
    ("CC(C)N(CCC(CCN(C)C1CCCCC1)(C(N)=O)c1ccccc1)C(C)C (stereo not drawn)", "Canis familiaris", 7.1),
    ("CC(C)N(CCC(CCN(C(C)C)C(C)C)(C(N)=O)c1cccc(Cl)c1)C(C)C", "Canis familiaris", 6.9),
    ("CC(C)N(CCC(CCN(C(C)C)C(C)C)(C(N)=O)c1c(Cl)cccc1Cl)C(C)C", "Canis familiaris", 6.9),
]
